Entry source: patent US20040224958A1

IC50 values by entry
Molecular target: cdk2/cyclinA (Homo sapiens)
Experiment: Cyclin-Dependent Kinase Assay cdk2/cyclinA
Details: cdk2/A IC50
Measurement Type: IC50 (µM)

{"Compound": "CCn1c(=O)ccc2cnc(Nc3ccc(NC(=O)OC(C)(C)C)cc3)nc21", "Tgt": "cdk2/cyclinA (Homo sapiens)", "Recorded Number": 1.25}
{"Compound": "CCCn1c(=O)ccc2cnc(Nc3ccc(O)c(Cl)c3)nc21", "Tgt": "cdk2/cyclinA (Homo sapiens)", "Recorded Number": 0.067}
{"Compound": "CCC(CC)n1c(=O)ccc2cnc(Nc3ccc(C#N)cc3)nc21", "Tgt": "cdk2/cyclinA (Homo sapiens)", "Recorded Number": 0.363}
{"Compound": "CCn1c(=O)ccc2cnc(Nc3ccc(O)c(Cl)c3)nc21", "Tgt": "cdk2/cyclinA (Homo sapiens)", "Recorded Number": 0.43}
{"Compound": "CCC(CC)n1c(=O)ccc2cnc(Nc3cccc([N+](=O)[O-])c3)nc21", "Tgt": "cdk2/cyclinA (Homo sapiens)", "Recorded Number": 0.2}
{"Compound": "CCCCn1c(=O)ccc2cnc(Nc3ccc(O)c(Cl)c3)nc21", "Tgt": "cdk2/cyclinA (Homo sapiens)", "Recorded Number": 0.0965}
{"Compound": "CCn1c(=O)ccc2cnc(Nc3ccc(F)c(C)c3)nc21", "Tgt": "cdk2/cyclinA (Homo sapiens)", "Recorded Number": 0.64}
{"Compound": "CCC(CC)n1c(=O)ccc2cnc(Nc3ccc(OC)c(F)c3)nc21", "Tgt": "cdk2/cyclinA (Homo sapiens)", "Recorded Number": 0.22}
{"Compound": "CCC(C)n1c(=O)ccc2cnc(Nc3ccc(C)c(C)c3)nc21 (stereo not drawn)", "Tgt": "cdk2/cyclinA (Homo sapiens)", "Recorded Number": 0.16}

----------
Target: Cdk5/p25 (Homo sapiens)
Test: Cyclin-Dependent Kinase 5 High Throughput Screening (cdk5-HTS) Assay
Type: biochemical
Conditions: high throughput screen
Decide using IC50 alone. Strictly below 50 nM: true. Equal to or above 50 nM: false.

{"Compound": "O=c1ccc2cnc(Nc3ccc(O)c(CN4CCOCC4)c3)nc2n1C1CCCC1 [Example 550]", "Label Class": "false"}
{"Compound": "CC(C)n1c(=O)ccc2cnc(Nc3ccc(S(N)(=O)=O)cc3)nc21 [Example 418]", "Label Class": "true"}
{"Compound": "CCCn1c(=O)ccc2cnc(Nc3ccc(Br)c(C)c3)nc21 [Example 360]", "Label Class": "false"}
{"Compound": "O=c1ccc2cnc(Nc3ccc(F)c(F)c3)nc2n1CC(F)(F)F [Example 607]", "Label Class": "false"}
{"Compound": "CCCCn1c(=O)ccc2cnc(Nc3cccc(C(F)(F)F)c3)nc21 [Example 373]", "Label Class": "false"}
{"Compound": "CCn1c(=O)ccc2cnc(Nc3ccc(F)c(F)c3)nc21 [Example 301]", "Label Class": "false"}
{"Compound": "CCCn1c(=O)ccc2cnc(Nc3cc(C(F)(F)F)ccc3F)nc21 [Example 311]", "Label Class": "false"}
{"Compound": "O=c1ccc2cnc(Nc3ccc4[nH]ncc4c3)nc2n1CC(F)(F)F [Example 594]", "Label Class": "false"}
{"Compound": "CCCCn1c(=O)ccc2cnc(Nc3cc(C)cc(C)c3)nc21 [Example 399]", "Label Class": "true"}
{"Compound": "CCC(CC)n1c(=O)ccc2cnc(Nc3ccc(F)c(C(F)(F)F)c3)nc21 [Example 502]", "Label Class": "true"}
{"Compound": "O=c1ccc2cnc(Nc3ccc(O)c(Cl)c3)nc2n1C1CCCC1 [Example 539]", "Label Class": "true"}
{"Compound": "CCCn1c(=O)ccc2cnc(Nc3ccc(N(C)C(C)=O)cc3)nc21 [Example 345]", "Label Class": "false"}
{"Compound": "CCC(CC)n1c(=O)ccc2cnc(Nc3ccc4c(c3)NC(=O)CS4)nc21 [Example 520]", "Label Class": "true"}
{"Compound": "CC(C)n1c(=O)ccc2cnc(Nc3cc([N+](=O)[O-])ccc3F)nc21 [Example 420]", "Label Class": "false"}
{"Compound": "CCC(CC)n1c(=O)ccc2cnc(Nc3cc(F)cc(F)c3)nc21 [Example 510]", "Label Class": "false"}
{"Compound": "CCC(C)n1c(=O)ccc2cnc(Nc3ccc(Cl)c(C(F)(F)F)c3)nc21 (stereo not shown) [Example 468]", "Label Class": "true"}
{"Compound": "CCC(C)n1c(=O)ccc2cnc(Nc3ccc(F)c(Cl)c3)nc21 (stereo not shown) [Example 460]", "Label Class": "true"}
{"Compound": "CCC(CC)n1c(=O)ccc2cnc(Nc3ccc(C#N)cc3)nc21 [Example 484]", "Label Class": "true"}
{"Compound": "CCCCn1c(=O)ccc2cnc(Nc3cc(OC)c(OC)c(OC)c3)nc21 [Example 389]", "Label Class": "false"}
{"Compound": "O=c1ccc2cnc(Nc3cccc(O)c3)nc2n1CC1CC1 [Example 578]", "Label Class": "false"}
{"Compound": "CC1Nc2ccc(Nc3ncc4ccc(=O)n(C5CCCC5)c4n3)cc2C1C (stereo not shown) [Example 552]", "Label Class": "false"}
{"Compound": "CCC(CC)n1c(=O)ccc2cnc(Nc3ccc(OC)c(F)c3)nc21 [Example 505]", "Label Class": "true"}
{"Compound": "CCCn1c(=O)ccc2cnc(Nc3cc(F)cc(F)c3)nc21 [Example 349]", "Label Class": "false"}
{"Compound": "O=c1ccc2cnc(Nc3ccc(O)cc3F)nc2n1CC(F)(F)F [Example 596]", "Label Class": "false"}
{"Compound": "O=c1[nH]c2ccc(Nc3ncc4ccc(=O)n(CC5CC5)c4n3)cc2[nH]1 [Example 577]", "Label Class": "false"}
{"Compound": "O=c1ccc2cnc(Nc3cc(Cl)c(O)c(Cl)c3)nc2n1CC(F)(F)F [Example 598]", "Label Class": "false"}
{"Compound": "CCCn1c(=O)ccc2cnc(Nc3ccc(I)c(Cl)c3)nc21 [Example 344]", "Label Class": "true"}
{"Compound": "CCCn1c(=O)ccc2cnc(Nc3ccc(OC)cc3)nc21 [Example 329]", "Label Class": "false"}
{"Compound": "CCCn1c(=O)ccc2cnc(Nc3ccc4cn[nH]c4c3)nc21 [Example 358]", "Label Class": "false"}
{"Compound": "NS(=O)(=O)c1ccc(Nc2ncc3ccc(=O)n(CC4CC4)c3n2)cc1 [Example 571]", "Label Class": "true"}
{"Compound": "CCCn1c(=O)ccc2cnc(Nc3ccc(C(F)(F)F)cc3)nc21 [Example 361]", "Label Class": "false"}
{"Compound": "CCC(CC)n1c(=O)ccc2cnc(Nc3ccc(Br)c(Cl)c3)nc21 [Example 507]", "Label Class": "false"}
{"Compound": "CCC(C)n1c(=O)ccc2cnc(Nc3cccc([N+](=O)[O-])c3)nc21 (stereo not shown) [Example 453]", "Label Class": "true"}
{"Compound": "O=c1ccc2cnc(Nc3ccc(Br)c(C(F)(F)F)c3)nc2n1CC1CC1 [Example 589]", "Label Class": "false"}
{"Compound": "CCCCn1c(=O)ccc2cnc(Nc3ccc(C)c(Cl)c3)nc21 [Example 400]", "Label Class": "true"}
